Tested on: Plasmodium berghei
Assay: Antimalarial activity in Plasmodium berghei infected mice (Mus musculus) after subcutaneous 640 mg/kg dose
Assay type: functional
REPORTED ENDPOINT: No. of cured mice

The compound listed as CC1C(=O)c2c(n(O)c3ccc(Cl)cc3c2=O)CC1c1ccc(Cl)cc1Cl (stereo not given) has a reported No. of cured mice of 5

The compound listed as CCN(CC)CC/N=C1\CC(c2ccc(C(F)(F)F)cc2)Cc2c1c(=O)c1cc(Cl)ccc1n2O (stereo not given) has a reported No. of cured mice of 3

The compound listed as O=C1CC(c2ccc(C(F)(F)F)cc2)Cc2c1c(=O)c1cc(Cl)ccc1n2O (stereo not given) has a reported No. of cured mice of 3

The compound listed as CN(C)CCC/N=C1\CC(c2ccc(C(F)(F)F)cc2)Cc2nc3cccc(Cl)c3c(O)c21 (stereo not given) has a reported No. of cured mice of 5

The compound listed as CCN(CC)CC(C)(C)C/N=C1\CC(c2ccc(C(F)(F)F)cc2)Cc2nc3ccc(Cl)cc3c(O)c21 (stereo not given) has a reported No. of cured mice of 4

The compound listed as O=c1c2c(n(O)c3ccc(Cl)cc13)CC(c1ccc(C(F)(F)F)cc1)C/C2=N\CCCNCCO (stereo not given) has a reported No. of cured mice of 1

The compound listed as CC1(C)CC(=O)c2c(nc3ccc(Cl)cc3c2O)C1 has a reported No. of cured mice of 4

The compound listed as CN(C)CCC/N=C1\CC(c2ccc(C(F)(F)F)cc2)Cc2nc3c(Cl)cc(Cl)cc3c(O)c21 (stereo not given) has a reported No. of cured mice of 5

The compound listed as CC1/C(=N\CCCN(C)C)c2c(n(O)c3ccc(Cl)cc3c2=O)CC1c1ccc(Cl)cc1Cl (stereo not given) has a reported No. of cured mice of 1

The compound listed as CC(C)C1CC(=O)c2c(n(O)c3ccc(Cl)cc3c2=O)C1 (stereo not given) has a reported No. of cured mice of 5

====

Tested on: Plasmodium berghei
Test: Antimalarial activity in Plasmodium berghei infected mice (Mus musculus) after 80 mg/kg subcutaneous dose
Assay type: functional
Give measured Delta mean survival time for each item. Keep answers brief.
Just the number, please.

Summary line: CCN(CC)CCCC(C)/N=C1\CC(c2ccc(Cl)c(Cl)c2)Cc2c1c(=O)c1cc(Cl)ccc1n2O (centres undefined) , Plasmodium berghei, reported Delta mean survival time = 9.6

Summary line: CCN(CC)Cc1cccc(/N=C2\CC(c3ccc(Cl)c(Cl)c3)Cc3c2c(=O)c2cc(Cl)ccc2n3O)c1 (centres undefined) , Plasmodium berghei, reported Delta mean survival time = 8

Summary line: COc1ccc(C2CC(=O)c3c(n(O)c4ccc(Cl)cc4c3=O)C2)cc1 (centres undefined) , Plasmodium berghei, reported Delta mean survival time = 1.2

Summary line: O=C1CC(c2cccc3ccccc23)Cc2c1c(=O)c1cc(Cl)ccc1n2O (centres undefined) , Plasmodium berghei, reported Delta mean survival time = 2.3

====

System: Plasmodium berghei
Experiment: Antimalarial activity in Plasmodium berghei infected mice (Mus musculus) after subcutaneous 320 mg/kg dose
Format: functional
Short version: No. of cured mice at least 3 is rule met, less is rule not met.

Query string: Does CCN(CC)CC(C)(C)C/N=C1\CC(c2ccc(Cl)c(Cl)c2)Cc2c1c(=O)c1cc(Cl)ccc1n2O (centres undefined) have a reported No. of cured mice of at least 3?
Result string: rule met

Query string: Does CCN1CCCC(/N=C2\CC(c3ccc(Cl)c(Cl)c3)Cc3c2c(=O)c2cc(Cl)ccc2n3O)C1 (centres undefined) have a reported No. of cured mice of at least 3?
Result string: rule met

Query string: Does CCCCNC(CC)C/N=C1\CC(c2ccc(C(F)(F)F)cc2)Cc2c1c(=O)c1cc(Cl)ccc1n2O (centres undefined) have a reported No. of cured mice of at least 3?
Result string: rule met

Query string: Does CN(C)CCC/N=C1\CC(c2ccc(C(F)(F)F)cc2)Cc2nc3ccc(Cl)cc3c(O)c21 (centres undefined) have a reported No. of cured mice of at least 3?
Result string: rule not met

Query string: Does O=c1c2c(n(O)c3ccc(Cl)cc13)CC(c1ccc(C(F)(F)F)cc1)C/C2=N\CCCN(CCO)CCO (centres undefined) have a reported No. of cured mice of at least 3?
Result string: rule met

Query string: Does O=C1CC(c2ccc(Cl)cc2Cl)Cc2nc3ccc(Cl)cc3c(O)c21 (centres undefined) have a reported No. of cured mice of at least 3?
Result string: rule met

Query string: Does CCCCNC(CC)C/N=C1\CC(c2ccc(Cl)cc2Cl)Cc2nc3ccc(Cl)cc3c(O)c21 (centres undefined) have a reported No. of cured mice of at least 3?
Result string: rule met

Query string: Does O=c1c2c(n(O)c3ccc(Cl)cc13)CC(c1cccc(C(F)(F)F)c1)C/C2=N\CCCN1CCCC1 (centres undefined) have a reported No. of cured mice of at least 3?
Result string: rule met

Query string: Does Cc1ccc(C2C/C(=N\CCCN(C)C)c3c(n(O)c4ccc(Cl)cc4c3=O)C2)cc1 (centres undefined) have a reported No. of cured mice of at least 3?
Result string: rule not met

Query string: Does CCN(CC)CCC/N=C1\CC(c2ccc(Cl)c(Cl)c2)Cc2c1c(=O)c1cc(Cl)ccc1n2O (centres undefined) have a reported No. of cured mice of at least 3?
Result string: rule met

Query string: Does O=C1CC(c2ccc(Cl)c(Cl)c2)Cc2nc3ccc(Cl)cc3c(O)c21 (centres undefined) have a reported No. of cured mice of at least 3?
Result string: rule not met

Query string: Does CC1C(=O)c2c(nc3ccc(Cl)cc3c2O)CC1c1ccc(Cl)c(C(F)(F)F)c1 (centres undefined) have a reported No. of cured mice of at least 3?
Result string: rule not met

Query string: Does O=c1c2c(n(O)c3ccc(Cl)cc13)CC(c1ccc(Cl)c(Cl)c1)C/C2=N\CCCN1CCCCC1 (centres undefined) have a reported No. of cured mice of at least 3?
Result string: rule met

====

Tested on: Plasmodium berghei
Assay: Antimalarial activity in Plasmodium berghei infected mice (Mus musculus) after 80 mg/kg subcutaneous dose
Assay type: functional
# note: exactly 6 is not below, so it is not satisfied; use satisfied for Delta mean survival time strictly under it

Query string: Report whether reported Delta mean survival time is lower than 6 (strictly) for O=C1CC(c2ccc(Cl)c(Cl)c2)Cc2c1c(=O)c1cc(Cl)ccc1n2O (centres undefined)
Result string: not satisfied

Query string: Report whether reported Delta mean survival time is lower than 6 (strictly) for CN(C)CCCCCCC/N=C1\CC(c2ccc(Cl)c(Cl)c2)Cc2c1c(=O)c1cc(Cl)ccc1n2O (centres undefined)
Result string: not satisfied

Query string: Report whether reported Delta mean survival time is lower than 6 (strictly) for O=c1c2c(n(O)c3ccc(Cl)cc13)CC(c1cccc(C(F)(F)F)c1)C/C2=N\C1CCN(Cc2ccccc2)CC1 (centres undefined)
Result string: satisfied

Query string: Report whether reported Delta mean survival time is lower than 6 (strictly) for O=C1CC(c2ccc(C(F)(F)F)cc2)Cc2nc3ccccc3c(O)c21 (centres undefined)
Result string: not satisfied

Query string: Report whether reported Delta mean survival time is lower than 6 (strictly) for O=C1CC(c2ccc(C(F)(F)F)cc2)Cc2nc3ccc(Cl)cc3c(O)c21 (centres undefined)
Result string: not satisfied

Query string: Report whether reported Delta mean survival time is lower than 6 (strictly) for O=C1CC(c2cccc(C(F)(F)F)c2)Cc2nc3ccc(Cl)cc3c(O)c21 (centres undefined)
Result string: satisfied

Query string: Report whether reported Delta mean survival time is lower than 6 (strictly) for O=C1CC(c2ccc(Cl)cc2Cl)Cc2nc3c(Cl)cccc3c(O)c21 (centres undefined)
Result string: satisfied

Query string: Report whether reported Delta mean survival time is lower than 6 (strictly) for O=C1CC(c2ccc(Cl)cc2Cl)Cc2nc3ccc(Cl)cc3c(O)c21 (centres undefined)
Result string: not satisfied

Query string: Report whether reported Delta mean survival time is lower than 6 (strictly) for O=C1CC(C2CCCCC2)Cc2c1c(=O)c1cc(Cl)ccc1n2O (centres undefined)
Result string: satisfied

Query string: Report whether reported Delta mean survival time is lower than 6 (strictly) for CCN(CC)CC(C)(C)C/N=C1\CC(c2ccc(C(F)(F)F)cc2)Cc2nc3ccc(Cl)cc3c(O)c21 (centres undefined)
Result string: not satisfied

Query string: Report whether reported Delta mean survival time is lower than 6 (strictly) for CN(C)CCC/N=C1\CC(c2ccc(Cl)cc2Cl)Cc2nc3c(Cl)ccc(Cl)c3c(O)c21 (centres undefined)
Result string: satisfied

Query string: Report whether reported Delta mean survival time is lower than 6 (strictly) for O=C1CC(c2cccc(C(F)(F)F)c2)Cc2c1c(=O)c1cc(Cl)ccc1n2[O-].[Na+] (centres undefined)
Result string: not satisfied

Query string: Report whether reported Delta mean survival time is lower than 6 (strictly) for O=C1CC(c2ccc(Cl)c(Cl)c2)Cc2nc3ccc(Cl)cc3c(O)c21 (centres undefined)
Result string: satisfied
